Reported rat_CLt values are given for each entry in this list.
- assayProtocol: Evaluation of total body clearance (CLtot), intravenous administration
- Format: in vivo, Sprague-Dawley (SD)
- details: rat (SD), intravenous administration 0.5-10 mg/kg; CLtot = dose/AUC
- Protocol: Dose: Intravenous administration with designated doses was selected. (Doses were changed depending on compounds.) • 0.5-10 mg/kg (n=2-3) Preparation of dosing formulation: The dosing solution was prepared by dissolving in an adequate solvent. Administration method: The dosing solution was injected into the tail vein by a syringe with a needle Blood sampling: The blood was collected at the scheduled time and obtained the plasma. Plasma concentrations of the compound were measured by LC/MS/MS. […]
Give the value in mL/min/kg but do not write mL/min/kg after it.

Consider the worked cases shown below.
COc1ccc(S(=O)(=O)N(CC2CCCC2)CC(O)C(Cc2ccc(OCc3ccccc3-n3nc4c(c3C(=O)O)CC(C(C)(C)C)CC4)cc2)NC(=O)OC2COC3(C)OCCC23)cc1 (centres unmarked) :: 1.29
CC1(C)CCc2sc(NC(=O)c3ccccc3CNc3ccc(CC(NC(=O)OC4COC5OCCC45)C(O)CN(CC4CCCC4)S(=O)(=O)c4ccc5c(c4)OCO5)cc3)c(C(=O)O)c2C1 (centres unmarked) :: 0.142
COc1ccc(S(=O)(=O)N(CC(C)C)CC(O)C(Cc2ccc(NCC3CCCC3c3sc4c(c3C(=O)O)CC(C)(C)CC4)cc2)NC(=O)OC2COC3(C)OCCC23)cc1 (centres unmarked) [Compound I-410] :: 1.07

Dear colleague, I am looking for the recorded rat_CLt of the following molecule: COc1ccc(S(=O)(=O)N(CC(C)C)CC(O)C(Cc2ccc(N(C)Cc3cc4ccccc4cc3-c3sc4c(c3C(=O)O)CC(C)(C)CC4)cc2)NC(=O)OC2COC3(C)OCCC23)cc1 (centres unmarked)
0.179

Dear colleague, I am looking for the recorded rat_CLt of the following molecule: COc1ccc(S(=O)(=O)N(CC(C)C)CC(O)C(Cc2ccc(NCc3cc(OC)c(OC)cc3-c3sc4c(c3C(=O)O)CC(C)(C)CC4)cc2)NC(=O)OC2COC3(C)OCCC23)cc1 (centres unmarked)
4.5

###

Reported IC50 values are given for each entry in this list.
- testTarget: HIV-1 PR (Human immunodeficiency virus type 1 group M subtype B)
- assayProtocol: HIV-protease inhibitory activity assay (FRET peptide substrate)
- Type: biochemical
- details: Test Example 1
Give the value in nM but do not write nM after it.

Consider the worked cases shown below.
COc1ccc(S(=O)(=O)N(CC(C)C)CC(O)C(Cc2ccc(N3CCC(Oc4cc(C(F)(F)F)ccc4-c4sc5c(c4C(=O)O)CC(C)(C)CC5)C3)cc2)NC(=O)OC2COC3(C)OCCC23)cc1 (centres unmarked) :: 4.38
COc1ccc(S(=O)(=O)N(CC(C)C)CC(O)C(Cc2ccc(OC3CCN(Cc4ccccc4-c4sc5c(c4C(=O)O)CC(C)(C)CC5)C3)cc2)NC(=O)OC2COC3(C)OCCC23)cc1 (centres unmarked) :: 2.1
CC(C)CN(CC(O)C(Cc1ccc(OCc2ccc3ccccc3c2C(N)=O)cc1)NC(=O)OC1COC2(C)OCCC12)S(=O)(=O)c1ccc2ncsc2c1 (centres unmarked) :: 0.96
CC(C)CN(CC(O)C(Cc1ccc(OC(C(=O)O)c2ccc(-c3ccc(F)cc3F)cc2)cc1)NC(=O)OC1COC2(C)OCCC12)S(=O)(=O)c1ccc2ncsc2c1 (centres unmarked) :: 1.87

Dear colleague, I am looking for the recorded IC50 of the following compound: COc1ccc(S(=O)(=O)N(CC(C)C)CC(O)C(Cc2ccc(N(Cc3ccoc3)Cc3ccccc3-c3sc4c(c3C(=O)O)CC(C)(C)CC4)cc2)NC(=O)OC2COC3(C)OCCC23)cc1 (centres unmarked)
5.41

Dear colleague, I am looking for the recorded IC50 of the following compound: COc1ccc(S(=O)(=O)N(CC(C)C)CC(O)C(Cc2ccc(NCC3CCCCN3C(=O)c3sc4c(c3C(=O)O)CC(C)(C)CC4)cc2)NC(=O)OC2COC3(C)OCCC23)cc1 (centres unmarked) [Compound I-605]
1.96

Dear colleague, I am looking for the recorded IC50 of the following compound: CC(C)CN(CC(O)C(Cc1ccc(OCCNC(=O)c2cc(Cl)cc(Cl)c2O)cc1)NC(=O)OC1COC2(C)OCCC12)S(=O)(=O)c1ccc2c(c1)OCO2 (centres unmarked)
1.83

Dear colleague, I am looking for the recorded IC50 of the following compound: COc1ccc(S(=O)(=O)N(CC(C)C)CC(O)C(Cc2ccc(N(CCC(C)C)Cc3ccccc3-c3sc4c(c3C(=O)O)CC(C)(C)CC4)cc2)NC(=O)OC2COC3(C)OCCC23)cc1 (centres unmarked)
7.09

Dear colleague, I am looking for the recorded IC50 of the following compound: COc1ccc(S(=O)(=O)N(CC(C)C)CC(O)C(Cc2ccc(NCC3CCCCC3NC(=O)c3sc4c(c3C(=O)O)CC(C)(C)CC4)cc2)NC(=O)OC2COC3(C)OCCC23)cc1 (centres unmarked)
1.95

Dear colleague, I am looking for the recorded IC50 of the following compound: COc1ccc(S(=O)(=O)N(CC(C)C)CC(O)C(Cc2ccc(NCc3cocc3-c3sc4c(c3C(=O)O)CC(C)(C)CC4)cc2)NC(=O)OC2COC3(C)OCCC23)cc1 (centres unmarked)
2.36

Dear colleague, I am looking for the recorded IC50 of the following compound: COc1ccc(S(=O)(=O)N(CC(C)C)CC(O)C(Cc2ccc(NCc3ccc(C#N)cc3-c3sc4c(c3C(=O)O)CC(C)(C)CC4)cc2)NC(=O)OC2COC3(C)OCCC23)cc1 (centres unmarked)
1.75

###

- assayProtocol: Evaluation of total body clearance (CLtot), intravenous administration
- Assay type: in vivo, Sprague-Dawley (SD)
- details: rat (SD), intravenous administration 0.5-10 mg/kg; CLtot = dose/AUC
Recorded rat_CLt split into classes band A (below 0.3 mL/min/kg), band B (0.3 mL/min/kg to below 0.5 mL/min/kg), band C (0.5 mL/min/kg or more)

Sample answers from the record:
C=CCNc1ccc(-c2sc3c(c2C(=O)O)CC(C)(C)CC3)c(CNc2ccc(CC(NC(=O)OC3COC4(C)OCCC34)C(O)CN(CC(C)C)S(=O)(=O)c3ccc(OC)cc3)cc2)c1 (stereo not shown) [Compound I-676] :: band A
COc1ccc(S(=O)(=O)N(CC(C)C)CC(O)C(Cc2ccc(NCc3cc(F)ccc3C(=O)Nc3sc4c(c3C(=O)O)CC(C)(C)CC4)cc2)NC(=O)OC2COC3(C)OCCC23)cc1 (stereo not shown) [Compound I-625] :: band A
COc1ccc(S(=O)(=O)N(CC(C)C)CC(O)C(Cc2ccc(NCc3ccc(C(F)(F)F)cc3-c3sc4c(c3C(=O)O)CC(C)(C)CC4)cc2)NC(=O)OC2COC3(C)OCCC23)cc1 (stereo not shown) [Compound I-526] :: band C
COc1ccc(S(=O)(=O)N(CC(C)C)CC(O)C(Cc2ccc(OCc3ccccc3-c3sc4c(c3C(=O)O)CC(C)(C)CC4)cc2)NC(=O)OC2COC3(CO)OCCC23)cc1 (stereo not shown) [Compound I-99] :: band C
COc1ccc(S(=O)(=O)N(CC2CCCC2)CC(O)C(Cc2ccc(NCc3ccccc3C(=O)Nc3sc4c(c3C(=O)O)CC(C)(C)CC4)cc2)NC(=O)OC2COC3OCCC23)cc1 (stereo not shown) [Compound I-857] :: band A
CN(Cc1ccccc1C(=O)Nc1sc2c(c1C(=O)O)CC(C)(C)CC2)c1ccc(CC(NC(=O)OC2COC3(C)OCCC23)C(O)CN(CC2CCCC2)S(=O)(=O)c2ccc3ncsc3c2)cc1 (stereo not shown) [Compound I-636] :: band B
COc1ccc(S(=O)(=O)N(CC(C)C)CC(O)C(Cc2ccc(NCc3ccc4nc(-c5sc6c(c5C(=O)O)CC(C)(C)CC6)sc4c3)cc2)NC(=O)OC2COC3(C)OCCC23)cc1 (stereo not shown) [Compound I-487] :: band C
COc1ccc(S(=O)(=O)N(CC(C)C)CC(O)C(Cc2ccc(NCc3cccc(C)c3-c3sc4c(c3C(=O)O)CC(C)(C)CC4)cc2)NC(=O)OC2COC3(C)OCCC23)cc1 (stereo not shown) [Compound I-598] :: band C
COc1ccc(S(=O)(=O)N(CC(C)C)CC(O)C(Cc2ccc(NCc3ncccc3C(=O)Nc3sc4c(c3C(=O)O)CC(C)(C)CC4)cc2)NC(=O)OC2COC3OCCC23)cc1 (stereo not shown) [Compound I-882] :: band A
COc1ccc(S(=O)(=O)N(CC(C)C)CC(O)C(Cc2ccc(NCc3ccc(Cl)cc3-c3sc4c(c3C(=O)O)CC(C)(C)CC4)cc2)NC(=O)OC2COC3(C)OCCC23)cc1 (stereo not shown) [Compound I-563] :: band C

Which of the defined bands does the recorded rat_CLt of COc1ccc(S(=O)(=O)N(CC(C)C)CC(O)C(Cc2ccc(N(C)Cc3cccc(C)c3-c3sc4c(c3C(=O)O)CC(C)(C)CC4)cc2)NC(=O)OC2COC3(C)OCCC23)cc1 (stereo not shown) [Compound I-599] sit within?
band B

Which of the defined bands does the recorded rat_CLt of COc1ccc(S(=O)(=O)N(CC(C)C)C[C@@H](O)[C@H](Cc2ccc(OCc3ccccc3C(=O)Nc3sc4c(c3C(=O)O)CC(C)(C)CC4)cc2)NC(=O)O[C@H]2CO[C@@]3(C)OCC[C@@H]23)cc1 [Compound I-268] sit within?
band A

meta.source: patent US20170253607A1
